- System: Klebsiella pneumonia (4 strains)
- ASSAY_REMARKS: MIC range, broader panel of Quotient Bioresearch strains (Table 4)
- Type: cell-based
- DETAILS: Klebsiella pneumoniae, read-out: MIC Range High, Klebsiella pneumonia (4 strains)
ATTRIBUTE_MEASURED: MIC

Problem: Find the recorded MIC belonging to Cc1c(-c2ccc(N)c(F)c2)c(F)cn2c(=O)c(C(=O)[O-])cc(C3CC3)c12.[K+] [Example 1 K salt] and report it.
Solution: > 32 µg/mL

Problem: Fill in: MIC of Cc1c(-c2cc(F)c(N)c(F)c2)ccn2c(=O)c(C(=O)[O-])cc(C3CC3)c12.[K+] [Example 39 K salt] is ___
Solution: 32 µg/mL

Problem: Need MIC, item Cc1c(-c2ccc(N)cc2)c(F)cn2c(=O)c(C(=O)[O-])cc(C3CC3)c12.[K+] [Example 5 K salt]
Solution: 16 µg/mL

Problem: Given the entry Cc1c(-c2ccc(CN)cc2)ccn2c(=O)c(C(=O)[O-])cc(C3CC3)c12.[K+] [Example 31 K salt] , report its measured MIC.
Solution: 32 µg/mL

Problem: Looking for the measured MIC of Cc1c(-c2ccc(N)nc2)ccn2c(=O)c(C(=O)[O-])cc(C3CC3)c12.[K+] [Example 21 K salt] , can you help?
Solution: 32 µg/mL

Problem: Form field: reported MIC of Cc1c(-c2ccncc2)ccn2c(=O)c(C(=O)[O-])cc(C3CC3)c12.[K+] [Example 16 K salt]
Solution: > 32 µg/mL

Problem: Name the recorded MIC for Cc1c(-c2ccc(C(N)=O)cc2)c(F)cn2c(=O)c(C(=O)[O-])cc(C3CC3)c12.[K+] [Example 6 K salt] .
Solution: > 32 µg/mL

Problem: Please look up its MIC: Cc1c(-c2ccc(O)cc2)ccn2c(=O)c(C(=O)[O-])cc(C3CC3)c12.[K+] [Example 46 K salt]
Solution: > 32 µg/mL

Problem: Looking for the measured MIC of Cc1c(-c2cc(F)c(N)cc2F)ccn2c(=O)c(C(=O)[O-])cc(C3CC3)c12.[K+] [Example 28 K salt] , can you help?
Solution: > 32 µg/mL

Problem: Dear colleague, I am looking for the recorded MIC of the following compound: Cc1c(-c2ccc3[nH]ncc3c2)ccn2c(=O)c(C(=O)[O-])cc(C3CC3)c12.[K+] [Example 23 K salt]
Solution: 16 µg/mL

Problem: I am curious: what MIC value has been reported for Cc1c(-c2ccc(N)c(F)c2)ccn2c(=O)c(C(=O)[O-])cc(C3CC3)c12.[K+] [Example 2 K salt] ?
Solution: 16 µg/mL

###

- Tested on: Group C Streptococcus (4 strains)
- ASSAY_REMARKS: MIC range, broader panel of Quotient Bioresearch strains (Table 3)
- DETAILS: read-out: MIC Range Low, Group C Streptococcus (4 strains)
Kindly state MIC for each of the entries shown.
Write the number in µg/mL without appending the unit.

Problem: Give Group C Streptococcus (4 strains) MIC for Cc1c(-c2cc(F)c(N)c(F)c2)ccn2c(=O)c(C(=O)[O-])cc(C3CC3)c12.[K+] [Example 39 K salt]
Solution: 0.03

Problem: Record Cc1c(-c2cc(F)c(N)cc2F)ccn2c(=O)c(C(=O)[O-])cc(C3CC3)c12.[K+] [Example 28 K salt] : what is its MIC with Group C Streptococcus (4 strains)?
Solution: 0.03

Problem: // map Cc1c(-c2ccc(O)cc2)ccn2c(=O)c(C(=O)[O-])cc(C3CC3)c12.[K+] [Example 46 K salt] to recorded MIC (system: Group C Streptococcus (4 strains))
Solution: 0.03

###

- ASSAY_REMARKS: Mouse pharmacokinetics, intravenous or oral 10 mg/kg (Table 9)
- Type: in vivo
- DETAILS: plasma, po, mice, p.o. vs i.v.
ATTRIBUTE_MEASURED: bioavailability (%)
Provide the reading as a plain figure in %.

Problem: Item Cc1c(-c2ccc3[nH]ncc3c2)ccn2c(=O)c(C(=O)[O-])cc(C3CC3)c12.[K+] [Ex. 23 K salt] has what recorded bioavailability?
Solution: 85.9

Problem: Query: bioavailability; subject: Cc1c(-c2ccc(N)c(F)c2)ccn2c(=O)c(C(=O)[O-])cc(C3CC3)c12.[K+] [Ex. 2 K salt]
Solution: 47.8

Problem: Any idea what bioavailability was measured for Cc1c(-c2cc(F)c(N)cc2F)ccn2c(=O)c(C(=O)[O-])cc(C3CC3)c12.[K+] [Ex. 28 K salt] ?
Solution: 43

Problem: Could you share which bioavailability value was measured for Cc1c(-c2ccc(O)cc2)ccn2c(=O)c(C(=O)[O-])cc(C3CC3)c12.[K+] [Ex. 46 K salt] ?
Solution: 82.1

###

For each of the molecules below, state its MIC.
- Test system: Enterococcus faecium (3 strains)
- ASSAY_REMARKS: MIC range, broader panel of Quotient Bioresearch strains (Table 3)
- DETAILS: read-out: MIC Range High, Enterococcus faecium (3 strains)
Your answer should be a plain number; it is taken to be in µg/mL.

Problem: // query MIC value for entry Cc1c(-c2ccc(N)c(F)c2)c(F)cn2c(=O)c(C(=O)[O-])cc(C3CC3)c12.[K+] [Example 1 K salt]
Solution: 8

Problem: Fill blank: measured MIC of the molecule Cc1c(-c2cc(F)c(N)c(F)c2)ccn2c(=O)c(C(=O)[O-])cc(C3CC3)c12.[K+] [Example 39 K salt] is ____.
Solution: 1

Problem: Could you tell me which MIC is on file for Cc1c(-c2ccncc2)ccn2c(=O)c(C(=O)[O-])cc(C3CC3)c12.[K+] [Example 16 K salt] ?
Solution: 16

Problem: Looking for the measured MIC of Cc1c(-c2ccc(C(N)=O)cc2)c(F)cn2c(=O)c(C(=O)[O-])cc(C3CC3)c12.[K+] [Example 6 K salt] , can you help?
Solution: 8

Problem: I have this molecule here, Cc1c(-c2ccc(CN)cc2)ccn2c(=O)c(C(=O)[O-])cc(C3CC3)c12.[K+] [Example 31 K salt] , and I need its recorded MIC.
Solution: 8

Problem: # query: MIC of entry Cc1c(-c2ccc(N)cc2)c(F)cn2c(=O)c(C(=O)[O-])cc(C3CC3)c12.[K+] [Example 5 K salt]
Solution: 4

###

- ASSAY_REMARKS: Mouse pharmacokinetics, intravenous or oral 10 mg/kg (Table 9)
- Format: in vivo
- DETAILS: iv, mice, i.v., plasma, read-out: Elimination Half life (converted)
- Method: Groups of 21 mice were treated with select examples at 10 mg/kg. Mice were treated either intravenously or orally (by gavage). At predetermined time points (0.25, 0.5, 1, 2, 4, 8 and 24 hours), 3 mice were sacrificed and blood samples drawn by cardiac puncture. Plasma was obtained by centrifugation and stored at −80° C. Plasma samples were analyzed by LC-MS for remaining amounts of compounds.
For each entry below, report its half-life value.
Write down the numeric answer in h and omit the unit.

Problem: Looking for the measured half-life of Cc1c(-c2cc(F)c(N)cc2F)ccn2c(=O)c(C(=O)[O-])cc(C3CC3)c12.[K+] [Ex. 28 K salt] , can you help?
Solution: 1.07

Problem: # query: half-life of entry Cc1c(-c2ccc3[nH]ncc3c2)ccn2c(=O)c(C(=O)[O-])cc(C3CC3)c12.[K+] [Ex. 23 K salt]
Solution: 1.16

Problem: Tell me the measured half-life of Cc1c(-c2ccc(N)nc2)ccn2c(=O)c(C(=O)[O-])cc(C3CC3)c12.[K+] [Ex. 21 K salt] , please.
Solution: 1.31

Problem: Need half-life of Cc1c(-c2ccc(N)c(F)c2)ccn2c(=O)c(C(=O)[O-])cc(C3CC3)c12.[K+] [Ex. 2 K salt] , thanks.
Solution: 1.48

Problem: Given the entry Cc1c(-c2ccc(O)cc2)ccn2c(=O)c(C(=O)[O-])cc(C3CC3)c12.[K+] [Ex. 46 K salt] , report its measured half-life.
Solution: 1.07

###

- System: Streptococcus pyogenes (4 strains)
- ASSAY_REMARKS: MIC range, broader panel of Quotient Bioresearch strains (Table 3)
- DETAILS: read-out: MIC Range High, Streptococcus pyogenes (4 strains)
ATTRIBUTE_MEASURED: MIC (µg/mL)
// return numeric value only (unit: µg/mL, not printed)

Problem: # get_value(readout= MIC, system= Streptococcus pyogenes (4 strains)) for Cc1c(-c2ccc(N)nc2)ccn2c(=O)c(C(=O)[O-])cc(C3CC3)c12.[K+] [Example 21 K salt]
Solution: 0.12

Problem: Quick check: MIC on Streptococcus pyogenes (4 strains), item Cc1c(-c2ccc(CN)cc2)ccn2c(=O)c(C(=O)[O-])cc(C3CC3)c12.[K+] [Example 31 K salt] ?
Solution: 0.25

Problem: Record lookup: for Streptococcus pyogenes (4 strains), what MIC belongs to Cc1c(-c2cc(F)c(N)cc2F)ccn2c(=O)c(C(=O)[O-])cc(C3CC3)c12.[K+] [Example 28 K salt] ?
Solution: 0.06

Problem: Field: MIC (Streptococcus pyogenes (4 strains)). Entry: Cc1c(-c2ccc(O)cc2)ccn2c(=O)c(C(=O)[O-])cc(C3CC3)c12.[K+] [Example 46 K salt]
Solution: 0.12

Problem: Test system Streptococcus pyogenes (4 strains); read-out MIC; what value for Cc1c(-c2ccc(N)cc2)c(F)cn2c(=O)c(C(=O)[O-])cc(C3CC3)c12.[K+] [Example 5 K salt] ?
Solution: 0.5
